Tested on: Blood cancer cells RS4; 11
Test: CellTiter Glo test: growth inhibition of cells
Format: cell-based
Conditions: Homo sapiens, 11 cells, 72 h, cell viability
Quick reference for IC50 among some compounds

Observe how each entry below is paired with its result.
Given the compound N#Cc1ccc(C(C=O)N2C(=O)N/C(=C\c3c[nH]c4c(F)c(Cl)ccc34)C2=O)cc1F (stereo not shown) [Compound 33] , what is its reported IC50? 1000 to 10000 nM

Given the compound O=C1N/C(=C\c2c[nH]c3cc(Cl)ccc23)C(=O)N1Cc1ccc(F)cc1 [Compound 3] , what is its reported IC50? ≤ 1000 nM

Further cases:
Given the compound Cc1c(Cl)ccc2c(/C=C3\NC(=O)N(C(CO)c4ccc(F)c(F)c4)C3=O)c[nH]c12 (stereo not shown) [Compound 39] , what is its reported IC50? 1000 to 10000 nM

Given the compound O=C(NCCO)C(c1ccc(F)c(F)c1)N1C(=O)N/C(=C\c2c[nH]c3c(F)c(Cl)ccc23)C1=O (stereo not shown) [Compound 72] , what is its reported IC50? ≤ 1000 nM

Given the compound Cc1c(Cl)ccc2c(/C=C3\NC(=O)N(C(C(=O)NCCO)c4ccc(C#N)c(F)c4)C3=O)c[nH]c12 (stereo not shown) [Compound 67] , what is its reported IC50? ≤ 1000 nM

Given the compound O=C(NCCO)C(c1ccc(Cl)cc1)N1C(=O)N/C(=C\c2c[nH]c3c(F)c(Cl)ccc23)C1=O (stereo not shown) [Compound 59] , what is its reported IC50? ≤ 1000 nM

Given the compound O=C1N/C(=C\c2c[nH]c3c(F)c(Cl)ccc23)C(=O)N1C(CO)c1ccc(Cl)c(F)c1F (stereo not shown) [Compound 105] , what is its reported IC50? ≤ 1000 nM
